For each record, write down the corresponding pIC50.
Tested on: RPMI-8226
procedure text: Cytotoxicity against human RPMI 8226 cells assessed as cell survival after 72 hrs by calcein-AM assay
Assay type: functional, cell-based
conditions used: RPMI-8226, 72 h
pIC50: −log10 of the molar value.

| structure as smiles | target of assay | quantity name | result |
| --- | --- | --- | --- |
| CC(=O)O[C@H]1CC[C@H]2[C@@H]3CC(=O)[C@@]4(F)C[C@H](O)CC[C@]4(C)[C@H]3CC[C@]12C | RPMI-8226 | pIC50 | < 4.30 |
| CC(C)[C@@H](C)/C=C/[C@@H](C)[C@H]1CC[C@H]2[C@@H]3CC(=O)[C@H]4C[C@H](F)CC[C@]4(C)[C@H]3CC[C@]12C | RPMI-8226 | pIC50 | < 4.30 |
| C[C@]12CC[C@@H](F)C[C@@H]1C(=O)C[C@@H]1[C@@H]2CC[C@]2(C)[C@@H](OC(=O)c3ccccc3)CC[C@@H]12 | RPMI-8226 | pIC50 | < 4.30 |
| C[C@]12CC[C@H]3[C@@H](CC(=O)[C@@]4(F)C[C@@H](O)CC[C@]34C)[C@@H]1CC[C@@H]2O | RPMI-8226 | pIC50 | < 4.30 |
| CC(C)[C@@H](C)/C=C/[C@@H](C)[C@H]1CC[C@H]2[C@@H]3CC(=O)[C@H]4C[C@@H](O)CC[C@]4(C)[C@H]3CC[C@]12C | RPMI-8226 | pIC50 | 4.57 |

Please state pIC50 for every compound in the list that follows.
1. CC(C)[C@@H](C)[C@@H](O)[C@H](O)[C@@H](C)[C@H]1CC[C@H]2[C@@H]3CC(=O)[C@H]4C[C@H](F)CC[C@]4(C)[C@H]3CC[C@]12C
2. CC(=O)O[C@H]1CC[C@H]2[C@@H]3CC(=O)[C@@]4(F)C[C@H](O)[C@H](O)C[C@]4(C)[C@H]3CC[C@]12C

A:
1. 4.63
2. < 4.30

Q: May I ask what pIC50 has been recorded for `C[C@]12CC[C@H]3[C@@H](CC(=O)[C@@]4(F)C[C@H](O)CC[C@]34C)[C@@H]1CC[C@@H]2O` ?
A: < 4.30

====

Kindly state IC50 for each of the entries shown.
System: BJ
procedure text: Cytotoxicity against human BJ cells assessed as cell survival after 72 hrs by calcein-AM assay
Format: cell-based

| structure as smiles | target of assay | result |
| --- | --- | --- |
| C[C@]12CC[C@@H](F)C[C@@H]1C(=O)C[C@@H]1[C@@H]2CC[C@]2(C)[C@@H](O)CC[C@@H]12 | BJ | > 50 µM |
| C[C@]12CC[C@H]3[C@@H](CC(=O)[C@@]4(F)CC=CC[C@]34C)[C@@H]1CC[C@@H]2O | BJ | > 50 µM |

Now for another entry.
Q: Look up IC50 for this compound: `CC[C@@H](C(C)C)[C@@H](O)[C@H](O)[C@@H](C)[C@H]1CC[C@H]2[C@@H]3CC(=O)[C@H]4C[C@H](O)[C@H](O)C[C@]4(C)[C@H]3CC[C@]12C`
A: > 50 µM

====

Test system: RPMI-8226
procedure text: Cytotoxicity against human RPMI 8226 cells assessed as cell survival after 72 hrs by calcein-AM assay
Format: functional, cell-based
conditions used: RPMI-8226, 72 h
quantity name: IC50

Here are 3 compounds together with their reported answers.
| structure as smiles | IC50 |
| --- | --- |
| CC(=O)O[C@H]1CC[C@H]2[C@@H]3CC(=O)[C@@]4(F)CC=CC[C@]4(C)[C@H]3CC[C@]12C | > 50 µM |
| CC[C@@H](C(C)C)[C@@H](O)[C@H](O)[C@@H](C)[C@H]1CC[C@H]2[C@@H]3CC(=O)[C@H]4C[C@H](O)[C@H](O)C[C@]4(C)[C@H]3CC[C@]12C | 26 µM |
| CC(=O)O[C@H]1CC[C@H]2[C@@H]3CC(=O)[C@@]4(F)C[C@@H](O)[C@@H](O)C[C@]4(C)[C@H]3CC[C@]12C | > 50 µM |

Value sought for every listed compound: IC50.
1. C[C@]12CC[C@H]3[C@@H](CC(=O)[C@@]4(F)C[C@H](F)CC[C@]34C)[C@@H]1CC[C@@H]2O
2. C[C@]12CC[C@@H](F)C[C@@H]1C(=O)C[C@@H]1[C@@H]2CC[C@]2(C)[C@@H](O)CC[C@@H]12
3. CC(=O)O[C@H]1CC[C@H]2[C@@H]3CC(=O)[C@@]4(F)C[C@H](F)CC[C@]4(C)[C@H]3CC[C@]12C

A:
["> 50 µM", "> 50 µM", "> 50 µM"]
